- SUBJECT_OF_TEST: T1, EsCas13d, nuclease-dead (Eubacterium siraeum, UniProt B0MS50, R295A;H300A;R849A;H854A)
- T1 sequence: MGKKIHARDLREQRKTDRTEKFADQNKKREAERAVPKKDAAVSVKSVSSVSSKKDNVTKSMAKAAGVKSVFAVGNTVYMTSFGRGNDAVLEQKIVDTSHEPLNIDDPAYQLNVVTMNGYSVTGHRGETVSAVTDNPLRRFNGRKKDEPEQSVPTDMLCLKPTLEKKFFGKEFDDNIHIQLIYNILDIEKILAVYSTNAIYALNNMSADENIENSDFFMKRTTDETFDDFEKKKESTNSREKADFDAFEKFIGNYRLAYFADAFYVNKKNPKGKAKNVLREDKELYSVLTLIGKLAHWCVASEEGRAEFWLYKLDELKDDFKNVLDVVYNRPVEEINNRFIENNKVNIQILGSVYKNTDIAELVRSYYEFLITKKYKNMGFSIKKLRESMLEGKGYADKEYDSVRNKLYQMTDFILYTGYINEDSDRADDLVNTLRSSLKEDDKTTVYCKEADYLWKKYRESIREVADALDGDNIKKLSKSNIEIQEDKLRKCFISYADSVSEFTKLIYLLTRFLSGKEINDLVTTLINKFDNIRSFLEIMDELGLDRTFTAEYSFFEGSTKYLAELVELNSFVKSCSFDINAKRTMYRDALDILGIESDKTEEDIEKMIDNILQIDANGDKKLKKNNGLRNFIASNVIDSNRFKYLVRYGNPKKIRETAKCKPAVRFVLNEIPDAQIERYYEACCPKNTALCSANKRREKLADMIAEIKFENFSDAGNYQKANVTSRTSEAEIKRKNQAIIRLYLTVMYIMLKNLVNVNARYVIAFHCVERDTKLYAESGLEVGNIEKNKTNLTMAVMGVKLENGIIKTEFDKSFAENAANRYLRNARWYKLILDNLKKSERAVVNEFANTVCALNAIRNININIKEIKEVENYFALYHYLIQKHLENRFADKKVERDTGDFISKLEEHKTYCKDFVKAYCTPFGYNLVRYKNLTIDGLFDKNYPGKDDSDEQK
- PROTOCOL: crRNA (strand 1, pre-loaded); Mg2+; 40 mM Tris-HCl pH 7.5, 150 mM NaCl, 6 mM MgCl2, 1 mM DTT, 0.1% Tween-20, 0.2 mg/ml BSA; 25 C; 10 min per concentration, then washed
- STUDY_CONDITIONS: tags: His6-TwinStrep-SUMO cleaved; N-terminal SNAP kept (SNAP-Surface 488); label: 3' end held by stalled T7 RNA polymerase
Record form. Attribute: Kd. Fill in for each entry.

Examples from the recorded data:
[[record]]
binder = "target 2 MT 5'PFS AAA 3'PFS CUU (mixed) RNA 1: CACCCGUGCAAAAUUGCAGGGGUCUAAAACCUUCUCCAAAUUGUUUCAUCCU RNA 2: GGGAAUGGAUCCACAUCUACGAAUUCAAAAGGAUGAAACAAUUUGGAGAAGCUUAGAUCGGAAGAGCACACGU"
measurement = "3.9 nM"

[[record]]
binder = "target 3 A12C,U22C (mixed) RNA 1: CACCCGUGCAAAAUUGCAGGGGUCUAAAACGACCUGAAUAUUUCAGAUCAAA RNA 2: GGGAAUGGAUCCACAUCUACGAAUUCGUUCUUGAUCUGACAUAUUCAGGUCUGCAGAUCGGAAGAGCACACGU"
measurement = "53 nM"

[[record]]
binder = "target 3 A5C,U22A (mixed) RNA 1: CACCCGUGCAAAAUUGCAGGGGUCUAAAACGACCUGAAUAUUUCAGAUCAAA RNA 2: GGGAAUGGAUCCACAUCUACGAAUUCGUUAUUGAUCUGAAAUAUUCCGGUCUGCAGAUCGGAAGAGCACACGU"
measurement = "60.5 nM"


Hi team, please reply with Kd for each item in this list.
1. target 2 MT 5'PFS CGC 3'PFS UCA (mixed) RNA 1: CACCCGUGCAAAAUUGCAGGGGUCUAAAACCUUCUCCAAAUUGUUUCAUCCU RNA 2: GGGAAUGGAUCCACAUCUACGAAUUCCGCAGGAUGAAACAAUUUGGAGAAGUCAAGAUCGGAAGAGCACACGU
2. target 3 insG 3' of 5,insA 3' of 2 (mixed) RNA 1: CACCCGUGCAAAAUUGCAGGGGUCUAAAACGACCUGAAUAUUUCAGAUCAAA RNA 2: GGGAAUGGAUCCACAUCUACGAAUUCGUUUUUGAUCUGAAAUAUUCAGGGUACUGCAGAUCGGAAGAGCACACGU
3. target 1 MT 5'PFS GUU 3'PFS AUU (mixed) RNA 1: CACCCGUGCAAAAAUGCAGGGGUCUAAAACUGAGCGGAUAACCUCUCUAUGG RNA 2: GGGAAUGGAUCCACAUCUACGAAUUCGUUCCAUAGAGAGGUUAUCCGCUCAAUUAGAUCGGAAGAGCACACGU
4. target 1 MT 5'PFS CAA 3'PFS AAA (mixed) RNA 1: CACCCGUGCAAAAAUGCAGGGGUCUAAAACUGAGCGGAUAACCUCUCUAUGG RNA 2: GGGAAUGGAUCCACAUCUACGAAUUCCAACCAUAGAGAGGUUAUCCGCUCAAAAAGAUCGGAAGAGCACACGU
5. target 1 A1G,U3C (mixed) RNA 1: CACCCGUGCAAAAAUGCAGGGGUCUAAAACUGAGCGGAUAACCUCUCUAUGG RNA 2: GGGAAUGGAUCCACAUCUACGAAUUCGUACCAUAGAGAGGUUAUCCGCCCGCCGAGAUCGGAAGAGCACACGU

["5.5 nM", "39 nM", "13.9 nM", "43 nM", "35 nM"]
